# target: T1, recombinant human TIGIT-Fc carrier-free protein (Homo sapiens (Human)., UniProt Q495A1-1)
# T1 construct: T cell Ig and ITIM domain receptor (TIGIT), human; also called hTIGIT-Fc; human TIGIT recombinant protein; source: bought: Biolegend (Cat. No. 768608)
# T1 sequence (Q495A1 22-141): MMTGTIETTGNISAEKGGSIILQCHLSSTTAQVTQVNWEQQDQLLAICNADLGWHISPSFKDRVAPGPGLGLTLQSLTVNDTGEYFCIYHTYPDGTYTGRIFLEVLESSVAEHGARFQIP
# method-summary: SPR; Biacore T200; m/hTIGIT-Fc (10 µg/mL in 10 mM Na-acetate pH 4.0) immobilised on a CM5 chip; Nbs or scFv injected in two-fold dilutions from 200 nM, 10 µl/min, 25°C; HBS pH 7.4 (0.01 M HEPES, 0.15 M NaCl, 3 mM EDTA, 0.005% Tween 20); fit 1:1 binding with drift and RI2
# experimental-parameters: both partners purified
readout-type: koff (s⁻¹)

1) anti-hTIGIT Nb 17037 (VHH, nanobody from an immunized llama; Cloned in pHen6 after PCR with primers A6E and PMCF; source: E. coli WK6, periplasmic extract, purified (Ni-NTA, SEC); not shown: His6, C-terminal, kept) VHH: QVQLQESGGGLVQAGGSLRLSCAASSTLSIDDMGWYRQAPEKHREFVATISRGGSTNYAASVKGRFTISRDNAKNTVFLQMNNLKSEDTAVYYCRATSTWRYYWAQGTQVTVSS; 0.00157
2) single-chain variable fragment derived from the monoclonal antibody Vibostolimab (scFv, V domains shown, variable domain of the heavy chain (VH) of Vibostolimab (Merck); (G4S)3 linker; variable domain of the light chain (VL) of Vibostolimab (Merck); Cloned in pHen6; also called ScFv Vibo; Vibo scFv; source: E. coli WK6, periplasmic extract, purified (Ni-NTA, SEC), produced in the same way as the Nbs; not shown: His6, C-terminal, kept) VH: EVQLVQSGAEVKKPGSSVKVSCKASGYTFSSYVMHWVRQAPGQGLEWIGYIDPYNDGAKYAQKFQGRVTLTSDKSTSTAYMELSSLRSEDTAVYYCARGGPYGWYFDVWGQGTTVTVSS VL: DIQMTQSPSSLSASVGDRVTITCRASEHIYSYLSWYQQKPGKVPKLLIYNAKTLAEGVPSRFSGSGSGTDFTLTISSLQPEDVATYYCQHHFGSPLTFGQGTRLEIK; 0.000827
